Record form. Attribute: Pathogen Box screen signal/noise ratio. Fill in for each entry.
tgt: Mycobacterium thermoresistible (Mtr) LpqY (Mycolicibacterium thermoresistibile, UniProt G7CES0)
Sequence (G7CES0 29-471): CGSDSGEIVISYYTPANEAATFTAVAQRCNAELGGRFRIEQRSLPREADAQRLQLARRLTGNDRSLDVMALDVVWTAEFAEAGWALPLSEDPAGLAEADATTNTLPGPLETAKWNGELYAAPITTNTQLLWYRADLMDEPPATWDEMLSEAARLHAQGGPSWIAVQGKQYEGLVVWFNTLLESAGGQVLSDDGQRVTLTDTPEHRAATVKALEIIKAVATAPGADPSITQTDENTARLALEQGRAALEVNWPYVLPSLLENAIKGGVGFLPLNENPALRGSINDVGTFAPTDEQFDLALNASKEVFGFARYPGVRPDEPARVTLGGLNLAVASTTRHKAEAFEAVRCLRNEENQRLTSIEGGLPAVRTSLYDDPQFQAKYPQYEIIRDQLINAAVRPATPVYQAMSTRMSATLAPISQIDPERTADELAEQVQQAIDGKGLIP
Type: binding
setup-conditions: single dose MST screen against LpqY
// return a plain number; no unit text

-- ask I am curious: what Pathogen Box screen signal/noise ratio value has been reported for CC1=NN(c2nc3ccccc3s2)C(=O)C1Cc1cccc2ccccc12 (stereo not shown) ?
-- reply 3.8

-- ask Pathogen Box screen signal/noise ratio lookup needed for O=C(NC1CCN(c2ccnc3ccccc23)C1)c1cccc(C(F)(F)F)c1 (stereo not shown) , thanks.
-- reply -0.0357

-- ask // lookup Pathogen Box screen signal/noise ratio for `COc1cc(Br)cc2cc(C(=O)Nc3cccc(C(F)(F)F)c3)c(=O)oc12`
-- reply 0.646

-- ask Reported Pathogen Box screen signal/noise ratio, compound `O=C(Nc1ccc(F)c(-c2nc3cc(-c4ccccc4)cnc3[nH]2)c1)N1CCCC1` : ____
-- reply 0.9

-- ask What value of Pathogen Box screen signal/noise ratio has been recorded for this entry: `COc1ccc(C(=N)N)cc1-c1cn(-c2ccc(C(=N)N)cc2)nn1`
-- reply 1.0

-- ask Look at this compound and give its reported Pathogen Box screen signal/noise ratio. `O=C(NC1CCCCC1)N1CCN(Cc2ccc3c(c2)OCO3)CC1`
-- reply 1.3

-- ask Given the compound `CS(=O)(=O)N1CCC(Cn2nc(Cc3cccc4ccccc34)c3c(N)ncnc32)CC1` , what is its reported Pathogen Box screen signal/noise ratio?
-- reply 0.8

-- ask Fill blank: measured Pathogen Box screen signal/noise ratio of the compound `Cc1cc(C(=O)Nc2cnn(Cc3ccc(Cl)cc3Cl)c2)no1` is ____.
-- reply 0.179

-- ask Suppose we examine the compound `Cc1nn2c(=O)c3c([nH]c2c1-c1ccc(Cl)cc1)CCCC3` ; what Pathogen Box screen signal/noise ratio value has been reported?
-- reply 1.5

-- ask Which Pathogen Box screen signal/noise ratio is reported for this compound? NCC(c1cccs1)S(=O)(=O)c1ccccc1 (stereo not shown)
-- reply 0.569

-- ask Could you tell me which Pathogen Box screen signal/noise ratio is on file for COC(=O)C1=C(C)NC(C)=C(C(=O)OC(C)C)C1c1cccc2nonc12 (stereo not shown) ?
-- reply 1.1

-- ask Field request: Pathogen Box screen signal/noise ratio | item: `Cn1ncc2c(N3CCOCC3)nc(NCCc3c[nH]c4ccccc34)nc21`
-- reply 0.7

-- ask Bench note: what Pathogen Box screen signal/noise ratio did `Cc1ccccc1CN1CCC(O)(c2ccc(Cl)c(C(F)(F)F)c2)CC1` show?
-- reply 0.25

-- ask Any idea what its Pathogen Box screen signal/noise ratio is? The compound is O=C(Nc1nc(-c2ccccn2)cs1)C1CC1c1ccccc1F (stereo not shown)
-- reply 0.225

-- ask Request the reported Pathogen Box screen signal/noise ratio associated with `COc1cccc(-n2nnnc2S(C)(=O)=O)c1`
-- reply 0.7

-- ask # query: Pathogen Box screen signal/noise ratio of entry CC1(C)OB(O)c2ccc(C3=NOC(c4cc(Cl)c(F)c(Cl)c4)(C(F)(F)F)C3)cc21 (stereo not shown)
-- reply 6.6

-- ask Dear colleague, I am looking for the recorded Pathogen Box screen signal/noise ratio of the following compound: `Cc1cccc(Cn2ccc(NC(=O)c3ccc4c(c3)OCO4)n2)c1`
-- reply 2.9

-- ask What value of Pathogen Box screen signal/noise ratio has been reported for the following compound? `CCOc1ccccc1C(=O)Nc1cccc(-c2nc3ncccn3c2C)c1`
-- reply 1.6

-- ask Look up Pathogen Box screen signal/noise ratio for this compound: `Cc1ccc2nc(C)c(-c3ccn(Cc4ccccc4)n3)n2c1`
-- reply -0.2

-- ask What value of measured Pathogen Box screen signal/noise ratio is listed for `Nc1c2c(nc3sc4c(c13)CCCC4)CCCC2` ?
-- reply 0.449

-- ask Requested read-out: Pathogen Box screen signal/noise ratio. Entry: `O=C(Nc1ccc(N2CCNCC2)nc1)c1oc(-c2ccccc2)nc1C(F)(F)F`
-- reply 2.9

-- ask Find the recorded Pathogen Box screen signal/noise ratio belonging to CC1=Nc2ccc(Cl)cc2C(c2ccccc2)N1CCNC(=O)CN(C)C (stereo not shown) and report it.
-- reply 0.5

-- ask Given `CCOC(=O)c1noc(N)c1-c1ccccc1` , state its recorded Pathogen Box screen signal/noise ratio.
-- reply 1.2

-- ask Which value of Pathogen Box screen signal/noise ratio has been reported for CC1CCCCN1C(=O)NCCc1coc(-c2ccc(F)cc2)n1 (stereo not shown) in the records?
-- reply 1.4

-- ask For the compound shown here, CNC(=O)C1Cc2ccccc2N1C(=O)Cc1ccc(F)cc1 (stereo not shown) , give the reported Pathogen Box screen signal/noise ratio.
-- reply 1.9

-- ask Fill in the blank: the reported Pathogen Box screen signal/noise ratio of `COc1ccc2nccc(NC(=O)C3CCN(CCc4ccc(Cl)cc4)CC3)c2n1` is ____.
-- reply 0.7

-- ask # query: Pathogen Box screen signal/noise ratio of entry `Cc1ncc(-c2ccnc(Nc3ccc(S(C)(=O)=O)cc3)n2)n1C(C)C`
-- reply 4.2

-- ask Endpoint output: Pathogen Box screen signal/noise ratio of Cc1cc(C2=NOC(c3cc(Cl)c(F)c(Cl)c3)(C(F)(F)F)C2)ccc1C(=O)NCc1ccc2c(c1)C(C)(C)OB2O (stereo not shown) . Value?
-- reply 1.6
